TARGET UNDER TEST: Pantothenate synthetase (Mycobacterium tuberculosis (strain ATCC 25618 / H37Rv))
TEST SUMMARY: Coupled enzyme confirmation of inhibitors against recombinant Mtb PanC (AID 375);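 note: 0% = full reaction with vehicle and 100% = no enzyme background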
RECORDED CONDITIONS: coupled enzyme assay; at 10 µM, stronger effect = higher value
Assignment: determine reported inhibition for the given compounds.
Numbers only; they are read as %.

## Task For CCC(C)C(=O)Nc1nc2c(s1)C(=O)CC(C)(C)C2 (stereo unspecified) , what is its reported inhibition?
## Result 10

## Task For CC(C)OC(=O)CSc1nnc(-c2cccnc2)n1Cc1ccccc1 , what is its reported inhibition?
## Result 3

## Task For COC(=O)c1cc(O)c(OCc2ccccc2)c(O)c1 , what is its reported inhibition?
## Result 0

## Task For CSc1ccc(-c2cc(=O)c3ccccc3o2)cc1 , what is its reported inhibition?
## Result 5

## Task For CC1CCc2nc(NC(=O)CN3CCN(Cc4ccc5c(c4)OCO5)CC3)sc2C1 (stereo unspecified) , what is its reported inhibition?
## Result 0

## Task For O=C(Nc1ncc(Cc2ccccc2)s1)C1CCCO1 (stereo unspecified) , what is its reported inhibition?
## Result 5

## Task For Cn1cc(NC(=O)c2cc(NC(=O)c3cc(NC=O)cn3C)cn2C)cc1C(=O)NCCC(=N)N , what is its reported inhibition?
## Result 10

## Task For CCOP(=O)(c1ccc(N(C)C)cc1)C(O)c1ccccc1OC (stereo unspecified) , what is its reported inhibition?
## Result 5

## Task For Cc1csc(NC(=O)Nc2cccc(Cl)c2)n1 , what is its reported inhibition?
## Result 0

## Task For O=C(c1cnccn1)N(c1ccccc1)C1(C(=O)NC2CCCC2)CCCCC1 , what is its reported inhibition?
## Result 0

## Task For CCOCCCn1c(=NC(C)=O)c(C(=O)OCC)cc2c(=O)n3ccccc3nc21 , what is its reported inhibition?
## Result 0
